Below: a set of entries, each annotated with reported melting point.

Consider the following illustrative entries.
Cc1ccc2cc(NC(=O)c3cccc(CSc4cnccn4)c3)ccc2n1: 133 to 135 °C
Cl.O=C(Nc1ccc(N2CCOCC2)c(C(F)(F)F)c1)c1ccc(F)c(OCc2cncc3ccccc23)c1: 175 to 180 °C
Cc1cc(NC(=O)c2cccc(CCc3cc(Nc4ccccc4)n[nH]3)c2)ccc1C(C)C: 150 to 151 °C

melting point for O=C(Nc1cccc(OCc2cccnc2)c1)N1CCCC1 is 138 to 140 °C

----------
SYSTEM_NAME: LCK tyrosine kinase (Homo sapiens, UniProt P06239, C224D/P223M)
Construct: starting from amino acid residue 223 to the end of the protein at residue 509; made in house; host or cells: insect cells
Sequence (P06239 223-509 P223M/C224D): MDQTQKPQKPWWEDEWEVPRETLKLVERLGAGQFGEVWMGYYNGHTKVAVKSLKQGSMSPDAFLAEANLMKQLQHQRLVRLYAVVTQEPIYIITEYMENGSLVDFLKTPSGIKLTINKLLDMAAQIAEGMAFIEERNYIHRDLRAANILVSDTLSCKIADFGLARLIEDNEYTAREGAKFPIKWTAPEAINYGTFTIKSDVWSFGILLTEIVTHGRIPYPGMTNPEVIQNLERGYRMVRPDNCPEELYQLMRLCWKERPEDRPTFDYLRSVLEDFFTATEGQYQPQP
ASSAY_NAME: LCK spectrophotometric assay;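 further: recombinant LCK kinase activity on poly(E4Y1), ADP formation coupled through PK/LDH to NADH oxidation, followed as absorbance loss at 340 nm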
Assay type: biochemical
EXPERIMENTAL_SETUP: @ 1 μM; read-out: LCK-P percent inhibition
Where a name gives a salt, the structure may show the parent alone.
Below: a set of entries, each annotated with reported inhibition at 1 µM.
Numeric answer plus unit only.

Consider the following illustrative entries.
CC(C)(C)c1cc(C(=O)Nc2cccc(SCc3cccnc3)c2)ccc1O: 19%
O=C(Nc1ccc(N2CCNCC2)c(C(F)(F)F)c1)c1ccc(F)c(OCc2cncc(-c3ccco3)c2)c1 [EE-1, dihydrochloride]: 53%

// returns inhibition at 1 µM for COc1ccc(Nc2cc(CSc3cccc(NC(=O)c4ccc(O)c(C(C)(C)C)c4)c3)[nH]n2)cn1 with LCK tyrosine kinase (Homo sapiens, UniProt P06239, C224D/P223M); value = 88%
